Test: Drug level in tumor of nod-SCID mouse xenografted with human NCI-H2122 cells at 20 mg/kg, ip single dose and measured after 7 hrs by LC-MS/MS analysis
Conditions: read-out: Drug uptake
assay endpoint: concentration at 7 h (µM)
Lab book: enter the figure in µM, no units written.

Input: Provide only the value of recorded concentration at 7 h for COc1ccc2nc(NC(=O)c3ccc(C(N)c4ccccc4)cc3)sc2c1 (racemic)
Output: 7

---

Experiment: Half life in human NCI-H2122 cells at 100 nM in presence of CYP4F inhibitor HET0016 by LC-MS/MS analysis
Assay type: ADME, cell-based
Conditions: with HET0016 (CYP4F inhibitor), concentration not stated
assay endpoint: half-life at 0.1 µM

Input: Check the records and state half-life at 0.1 µM for `COc1ccc2nc(NC(=O)c3ccc([C@H](N)c4ccccc4)cc3)sc2c1`
Output: > 48 h

---

Experiment: Toxicity in normal chow diet fed nod-SCID mouse xenografted with NCI-H2122 cells assessed as body weight loss at 20 mg/kg, ip QD for 3 weeks (reference value: <5%)
Format: organism-based
Details: in vivo, 504 h
assay endpoint: Activity (%)
Numbers only here, please. The scale is %.

Input: Specify reported Activity for the molecule shown: `COc1ccc2nc(NC(=O)c3ccc([C@H](N)c4ccccc4)cc3)sc2c1`
Output: 5

---

AUC at 504 h values by entry
Assay: AUC in fat of CD-1 female mouse at 10 mg/kg, ip single dose by LC-MS/MS analysis
Conditions: CD-1, mouse
The figure you give is taken to be in µM·h; do not add the unit.

Input: Please report AUC at 504 h for the following compound: COc1ccc2nc(NC(=O)c3ccc(C(O)c4ccccn4)cc3)sc2c1 (racemic)
Output: 70

Input: Provide only the value of recorded AUC at 504 h for COc1ccc2nc(NC(=O)c3ccc(C(N)c4ccccc4)cc3)sc2c1 (racemic)
Output: 77

---

Test: Half life in human NCI-H1155 cells at 100 nM by LC-MS/MS analysis
Type: ADME, cell-based
assay endpoint: half-life at 0.1 µM

Input: Give a short answer stating reported half-life at 0.1 µM for `COc1ccc2nc(NC(=O)c3ccc([C@H](N)c4ccccc4)cc3)sc2c1` .
Output: > 48 h

---

Experiment: Cmax in plasma of CD-1 female mouse at 10 mg/kg, ip single dose by LC-MS/MS analysis
Settings: CD-1, mouse
Entries and their Cmax values follow.
Please respond with the number in nM and leave the unit unwritten.

COc1ccc2nc(NC(=O)c3ccc(C(N)c4ccccc4)cc3)sc2c1 (racemic)	1500
COc1ccc2nc(NC(=O)c3ccc(C(O)c4ccccn4)cc3)sc2c1 (racemic)	11000
COc1ccc2nc(NC(=O)c3ccc([C@H](N)c4ccccc4)cc3)sc2c1	900

Okay, now this molecule:
Input: Specify reported Cmax for the molecule shown: `COc1ccc2nc(NC(=O)c3ccc(C(=O)c4ccccc4)cc3)sc2c1`
Output: 300

---

Assay: Cmax in lung of CD-1 female mouse at 10 mg/kg, ip single dose by LC-MS/MS analysis
Conditions: CD-1, mouse
assay endpoint: Cmax
Express the reported value numerically, then name its unit.

COc1ccc2nc(NC(=O)c3ccc(C(=O)c4ccccc4)cc3)sc2c1	0.9 µM
COc1ccc2nc(NC(=O)c3ccc(C(O)c4ccccn4)cc3)sc2c1 (racemic)	26 µM

Let us move to another entry and its Cmax.
Input: Supply reported Cmax belonging to this molecule: COc1ccc2nc(NC(=O)c3ccc(C(N)c4ccccc4)cc3)sc2c1 (racemic)
Output: 61 µM

---

Assay: AUC in plasma of CD-1 female mouse at 10 mg/kg, ip single dose by LC-MS/MS analysis
Details: CD-1, mouse
assay endpoint: AUC at 504 h (µM·h)
// units = µM·h; emit number, no label

Solved cases (3 shown):
COc1ccc2nc(NC(=O)c3ccc(C(=O)c4ccccc4)cc3)sc2c1	0.6
COc1ccc2nc(NC(=O)c3ccc(C(N)c4ccccc4)cc3)sc2c1 (racemic)	3
COc1ccc2nc(NC(=O)c3ccc(C(O)c4ccccn4)cc3)sc2c1 (racemic)	9.6

Next, consider the following molecule.
Input: For the molecule `COc1ccc2nc(NC(=O)c3ccc([C@H](N)c4ccccc4)cc3)sc2c1` , report AUC at 504 h.
Output: 1.6

---

Assay: AUC in lung of CD-1 female mouse at 10 mg/kg, ip single dose by LC-MS/MS analysis
Details: CD-1, mouse
The following compounds are shown together with reported AUC at 504 h values.
Respond with a number, then the unit of measure.

These solved cases illustrate the format of a correct answer.
COc1ccc2nc(NC(=O)c3ccc(C(N)c4ccccc4)cc3)sc2c1 (racemic)	160 µM·h
COc1ccc2nc(NC(=O)c3ccc(C(=O)c4ccccc4)cc3)sc2c1	2.6 µM·h

Let us examine a further case.
Input: Identify the reported AUC at 504 h for the following entry. COc1ccc2nc(NC(=O)c3ccc(C(O)c4ccccn4)cc3)sc2c1 (racemic)
Output: 17 µM·h
